The reported measurements were obtained from patent US9440957B2.

tested-system: EGFR(L858R/T790M) (Homo sapiens, UniProt P00533, L858R/T790M)
Construct: purchased from Carna (GST-a.a. 669-1210)
Sequence (P00533 669-1210 T790M/L858R): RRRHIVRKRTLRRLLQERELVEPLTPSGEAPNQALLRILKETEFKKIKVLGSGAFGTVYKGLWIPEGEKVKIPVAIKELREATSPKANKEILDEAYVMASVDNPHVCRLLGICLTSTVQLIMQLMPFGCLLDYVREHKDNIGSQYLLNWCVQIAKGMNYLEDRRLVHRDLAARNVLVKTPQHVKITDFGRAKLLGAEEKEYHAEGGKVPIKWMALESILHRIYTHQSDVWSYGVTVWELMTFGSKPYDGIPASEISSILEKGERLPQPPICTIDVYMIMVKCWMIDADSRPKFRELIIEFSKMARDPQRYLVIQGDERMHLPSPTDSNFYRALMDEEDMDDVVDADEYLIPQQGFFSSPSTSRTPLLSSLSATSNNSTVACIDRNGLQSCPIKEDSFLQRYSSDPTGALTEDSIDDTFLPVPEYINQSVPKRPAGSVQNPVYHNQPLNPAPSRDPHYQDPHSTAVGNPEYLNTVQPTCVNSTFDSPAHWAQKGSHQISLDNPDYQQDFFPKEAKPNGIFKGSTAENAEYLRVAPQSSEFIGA
method-summary: EGFR biochemical assay (HTRF), IC50 determinations
cond: EGFR (L858R/T790M) with 90 min pre-incubation; read-out: IC50 (μM) Column B
IC50 values, listed per item
observable: IC50

compound	tested-system	recorded-value
Cc1ccc(C(=O)Nc2nc3cccc(C)c3n2C2CCCCN(C(=O)/C=C/CN(C)C)C2)cn1 (stereo not shown)	EGFR(L858R/T790M) (Homo sapiens, UniProt P00533, L858R/T790M)	< 0.001 µM
Cc1cccc2nc(NC(=O)c3ccn4cncc4c3)n(C3CCCCN(C(=O)/C=C/CN(C)C)C3)c12 (stereo not shown)	EGFR(L858R/T790M) (Homo sapiens, UniProt P00533, L858R/T790M)	< 0.001 µM
Cc1cc(C(=O)Nc2nc3cccc(Cl)c3n2[C@@H]2CCCCN(C(=O)/C=C/CN3CC[C@H](F)C3)C2)ccn1	EGFR(L858R/T790M) (Homo sapiens, UniProt P00533, L858R/T790M)	< 0.001 µM
Cc1cccc2nc(NC(=O)c3cncc(-n4cccc4)c3)n([C@@H]3CCCCN(C(=O)/C=C/CN(C)C)C3)c12	EGFR(L858R/T790M) (Homo sapiens, UniProt P00533, L858R/T790M)	< 0.001 µM
C=CC(=O)N1CCCCC(n2c(NC(=O)c3ccccc3)nc3cccc(-c4nc(C)no4)c32)C1 (stereo not shown)	EGFR(L858R/T790M) (Homo sapiens, UniProt P00533, L858R/T790M)	0.009 µM
C=CC(=O)N1CCCC(n2c(NC(=O)c3cccc(C(F)(F)F)c3)nc3c2CCN(S(C)(=O)=O)C3)C1 (stereo not shown)	EGFR(L858R/T790M) (Homo sapiens, UniProt P00533, L858R/T790M)	0.095 µM
Cc1cc(C(=O)Nc2nc3cccc(C)c3n2[C@@H]2CCCCN(C(=O)/C=C/CN3CCCC3)C2)ccn1	EGFR(L858R/T790M) (Homo sapiens, UniProt P00533, L858R/T790M)	< 0.001 µM
